Entry source: ChEMBL document CHEMBL1136202

Record type: IC50 measurement. Applies to: Cyclin-dependent kinase 4 (Homo sapiens)
quantity_name: IC50 (µM)

[P] Cc1nc2ccccn2c1-c1ccnc(NC(=O)C(F)(F)F)n1
[Q] Cc1nc2ccccn2c1-c1ccnc(N)n1
[R] Cc1nc2ccccn2c1-c1ccnc(Nc2ccc(OCC(O)CN(C)C)cc2)n1 (stereo not given)
[S] Cc1ccc(F)c(Nc2ccnc(Nc3ccc(S(N)(=O)=O)cc3)n2)c1
# order the compounds above by IC50, highest value first Provide the ranking by listing each label in its place in the requested order.
P, Q, S, R

---

pIC50: −log10 of the molar value.
Record type: pIC50 measurement. Applies to: UniProtKB P24941
quantity_name: pIC50

[A] Cc1ccc(F)c(Nc2ccnc(Nc3ccc(S(N)(=O)=O)cc3)n2)c1
[B] Cc1nc2ccccn2c1-c1ccnc(NC(=O)C(F)(F)F)n1
[C] CC(=O)Nc1nccc(-c2c(C)nc3ccccn23)n1
Arrange the items listed above so that pIC50 rises from first to last. Provide the ranking by listing each label in its place in the requested order.
B, C, A
